Data origin: paper PMC10402865

# measured target: ATAD2 recombinant bromodomain protein (Homo sapiens, UniProt Q6PL18)
# Sequence (Q6PL18 980-1092 limits assumed): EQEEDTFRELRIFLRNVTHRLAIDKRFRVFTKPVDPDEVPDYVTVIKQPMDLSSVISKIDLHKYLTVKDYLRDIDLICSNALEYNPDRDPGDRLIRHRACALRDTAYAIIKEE
# assay protocol: ATAD2 enzymatic assay by TR-FRET technology
# Assay type: binding
# condition label: TR-FRET; mean ± SD; read-out: Kinase inhibitory activity (IC50, μM) ATAD2
endpoint label: IC50 (µM)

COc1ccc(C(=O)N2CCSCC2)cc1NC(=O)Cn1cnc2c(=O)n(C)c(=O)n(C)c21 [Compound 15c]    14.8
Cc1ccc(C(=O)NC2CCCCC2)cc1NC(=O)Cn1cnc2c(=O)n(C)c(=O)n(C)c21 [Compound 19h]    19.7

[a] Cn1c(=O)c2ncn(CC(=O)Nc3cccc(C(=O)NC4CCCC4)c3)c2n(C)c1=O [Compound 19d]
[b] Cc1ccc(C(=O)NC2CCCC2)cc1NC(=O)Cn1cnc2c(=O)n(C)c(=O)n(C)c21 [Compound 19e]
[c] Cc1ccc(C(=O)NC2CC2)cc1NC(=O)Cn1cnc2c(=O)n(C)c(=O)n(C)c21 [Compound 19b]
[d] Cn1c(=O)c2ncn(CC(=O)Nc3cccc(C(=O)NC4CCCCC4)c3)c2n(C)c1=O [Compound 19g]
**Q:** Please list these in order of increasing IC50. Thank you! In your reply, arrange the labels in the requested order.
**A:** b, a, c, d

---

endpoint label: melting point

Previously resolved entries follow.
Cc1ccc(C(=O)N2CCSCC2)cc1NC(=O)Cn1cnc2c(=O)n(C)c(=O)n(C)c21 [Compound 15b]    251 to 252 °C
Cc1ccc(C(=O)NC2CCCC2)cc1NC(=O)Cn1cnc2c(=O)n(C)c(=O)n(C)c21 [Compound 19e]    211 to 213 °C
Cn1c(=O)c2ncn(CC(=O)Nc3cccc(C(=O)N4CCSCC4)c3)c2n(C)c1=O [Compound 15a]    246 to 248 °C
Cn1c(=O)c2ncn(CC(=O)Nc3cccc(C(=O)N4CCS(=O)(=O)CC4)c3)c2n(C)c1=O [Compound 15d]    224 to 226 °C

**Q:** I have this compound here, Cn1c(=O)c2ncn(CC(=O)Nc3cccc(C(=O)N4CCOCC4)c3)c2n(C)c1=O [Compound 15g] , and I need its recorded melting point.
**A:** 266 to 268 °C

---

# measured target: ATAD2 recombinant bromodomain protein (Homo sapiens)
# assay protocol: ATAD2 enzymatic assay by TR-FRET technology
# Type: binding
# condition label: TR-FRET; mean ± SD; read-out: Kinase inhibitory activity (IC50, μM) ATAD2
endpoint label: IC50 (µM)

Previously resolved entries follow.
CC1=C(C#N)c2nc(N)c(C#N)cc2/C1=C\c1ccc(-c2cc(C(=O)O)ccc2Cl)o1    3.49
COc1ccc(C(=O)NC2CCCC2)cc1NC(=O)Cn1cnc2c(=O)n(C)c(=O)n(C)c21 [Compound 19f]    0.27
COc1ccc(C(=O)N2CCOCC2)cc1NC(=O)Cn1cnc2c(=O)n(C)c(=O)n(C)c21 [Compound 15i]    11.3
COc1ccc(C(=O)NC2CCCCC2)cc1NC(=O)Cn1cnc2c(=O)n(C)c(=O)n(C)c21 [Compound 19i]    12.3
Cn1c(=O)c2ncn(CC(=O)Nc3cc(C(=O)N4CCOCC4)ccc3Cl)c2n(C)c1=O [Compound 15j]    15.2

[P] Cn1c(=O)c2ncn(CC(=O)Nc3cccc(C(=O)N4CCOCC4)c3)c2n(C)c1=O [Compound 15g]
[Q] COc1ccc(C(=O)NC2CC2)cc1NC(=O)Cn1cnc2c(=O)n(C)c(=O)n(C)c21 [Compound 19c]
[R] Cc1cc2c(cc1N)n(C)c(=O)n2C
[S] Cn1c(=O)c2ncn(CC(=O)Nc3cccc(C(=O)NC4CC4)c3)c2n(C)c1=O [Compound 19a]
**Q:** Please list these in order of increasing IC50. Thank you! In your reply, arrange the labels in the requested order.
**A:** Q, S, P, R
